Attribute: inhibition at 0.2 µM
- target-or-system: canine TRPM8 (Canis lupus familiaris, UniProt Q1A7N1)
- Construct: expressed in transfected cells
- Sequence (Q1A7N1 1-1104): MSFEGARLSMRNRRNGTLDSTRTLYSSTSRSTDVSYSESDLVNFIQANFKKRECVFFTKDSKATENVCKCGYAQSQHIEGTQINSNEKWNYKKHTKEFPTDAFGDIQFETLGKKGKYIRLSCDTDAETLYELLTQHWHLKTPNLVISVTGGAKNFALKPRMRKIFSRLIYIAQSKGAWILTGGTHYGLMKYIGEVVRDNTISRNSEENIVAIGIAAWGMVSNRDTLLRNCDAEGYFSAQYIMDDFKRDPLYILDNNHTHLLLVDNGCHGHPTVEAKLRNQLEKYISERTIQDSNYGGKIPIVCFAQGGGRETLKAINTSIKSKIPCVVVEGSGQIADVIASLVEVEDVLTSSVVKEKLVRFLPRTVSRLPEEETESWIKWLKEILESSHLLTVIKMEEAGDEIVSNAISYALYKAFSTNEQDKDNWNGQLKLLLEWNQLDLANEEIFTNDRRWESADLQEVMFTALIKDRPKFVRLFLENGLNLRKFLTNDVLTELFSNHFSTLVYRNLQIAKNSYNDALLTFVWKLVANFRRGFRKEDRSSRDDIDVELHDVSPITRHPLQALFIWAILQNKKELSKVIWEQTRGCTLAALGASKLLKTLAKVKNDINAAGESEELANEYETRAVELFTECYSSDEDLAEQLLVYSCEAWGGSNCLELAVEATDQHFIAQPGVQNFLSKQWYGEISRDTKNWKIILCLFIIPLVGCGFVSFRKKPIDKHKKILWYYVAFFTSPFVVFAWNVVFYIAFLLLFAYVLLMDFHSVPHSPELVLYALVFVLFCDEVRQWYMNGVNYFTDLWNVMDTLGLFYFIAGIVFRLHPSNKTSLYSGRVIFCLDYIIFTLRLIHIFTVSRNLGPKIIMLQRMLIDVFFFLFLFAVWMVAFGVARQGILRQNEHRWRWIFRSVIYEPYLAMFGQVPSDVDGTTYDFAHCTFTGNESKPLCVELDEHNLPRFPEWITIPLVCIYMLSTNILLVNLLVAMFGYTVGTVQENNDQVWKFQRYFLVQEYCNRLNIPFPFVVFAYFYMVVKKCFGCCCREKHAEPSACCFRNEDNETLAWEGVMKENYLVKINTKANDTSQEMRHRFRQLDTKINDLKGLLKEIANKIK
- procedure-details: In vitro canine TRPM8 functional assay (icilin-induced intracellular Ca2+ increase, FLIPR/FDSS)
- Type: cell-based
- particulars: 0.2 μM compound; HEK293 canine TRPM8; Table 6
Express your answer as a number followed by its unit.

Below: 4 compounds and their reported inhibition at 0.2 µM.
O=S(=O)(N=c1n(Cc2ccc(C(F)(F)F)cc2)c2ccccc2n1CC1CC1)c1ccccc1; 71%
O=S(=O)(/N=c1\n(Cc2ccc(C(F)(F)F)c(F)c2)c2ccccc2n1CC(F)(F)F)c1ccccc1; 89%
CC(C)Cn1c(=NS(=O)(=O)c2ccccc2)n(Cc2ccc(OC(F)(F)F)cc2)c2ccccc21; 70%
CC(C)n1c(=NS(=O)(=O)c2ccccc2)n(Cc2ccc(C(F)(F)F)c(F)c2)c2cc(Cl)ccc21; 95%

Test system canine TRPM8 (Canis lupus familiaris, UniProt Q1A7N1); read-out inhibition at 0.2 µM; what value for O=S(=O)(/N=c1\n(Cc2ccc(C(F)(F)F)c(F)c2)c2ccccc2n1CC1CC1)c1ccccc1 ?
94%

====

Listing of entries alongside the reported % Inh @ 0.2 μM.
- target-or-system: canine TRPM8 (Canis lupus familiaris)
- Construct: expressed in transfected cells
- procedure-details: In vitro canine TRPM8 functional assay (icilin-induced intracellular Ca2+ increase, FLIPR/FDSS)
- Assay type: cell-based
- particulars: 0.2 μM compound; HEK293 canine TRPM8; Table 6
Report only the number, with the unit % understood.

Please review the entries below; each comes with its answer.
Cn1c(=NS(=O)(=O)c2ccccc2)n(Cc2ccc(OC(F)(F)F)cc2)c2ccc(C(F)(F)F)cc21; 25
Cc1cccc2c1n(Cc1ccc(C(F)(F)F)c(F)c1)c(=NS(=O)(=O)c1ccccc1)n2C; 19
Cn1c(=NS(=O)(=O)c2ccccc2)n(Cc2ccc(OC(F)(F)F)cc2)c2cc(C(F)(F)F)ccc21; 17

Below: the item to evaluate.
So what's the measured % Inh @ 0.2 μM for this one? Cc1ccc2c(c1)n(C)c(=NS(=O)(=O)c1ccccc1)n2Cc1ccc(OC(F)(F)F)cc1
6

====

Recorded IC50 by entry
- target-or-system: canine TRPM8 (Canis lupus familiaris)
- Construct: expressed in transfected cells
- procedure-details: In vitro canine TRPM8 functional assay (icilin-induced intracellular Ca2+ increase, FLIPR/FDSS)
- Format: cell-based
- particulars: HEK293 cells stably expressing canine TRPM8; icilin at ~80% maximal response; Table 6; read-out: IC50
The reply should contain only the number, in µM.

CC(C)n1c(=NS(=O)(=O)c2ccccc2)n(Cc2ccc(OC(F)(F)F)cc2)c2cc(C(F)(F)F)ccc21; 0.024
CC(C)Cn1c(=NS(=O)(=O)c2ccccc2)n(Cc2ccc(OC(F)(F)F)cc2)c2ccccc21; 0.058
O=S(=O)(/N=c1\n(Cc2ccc(C(F)(F)F)c(F)c2)c2ccccc2n1CC(F)(F)F)c1ccccc1; 0.021
CCn1c(=NS(=O)(=O)c2ccccc2)n(Cc2ccc(C(F)(F)F)cc2)c2ccccc21; 0.069

Now turn to the next compound.
May I ask what IC50 has been recorded for CC(C)n1c(=NS(=O)(=O)c2ccccc2)n(Cc2ccc(C(F)(F)F)c(F)c2)c2cc(C(F)(F)F)ccc21 ?
0.01

====

- target-or-system: canine TRPM8 (Canis lupus familiaris)
- Construct: expressed in transfected cells
- procedure-details: In vitro canine TRPM8 functional assay (icilin-induced intracellular Ca2+ increase, FLIPR/FDSS)
- Format: cell-based
- particulars: 0.2 μM compound; HEK293 canine TRPM8; Table 6
# % Inh @ 0.2 μM >= 40% gives 1, anything below gives 0

Before answering, review these 3 worked examples.
Cn1c(=NS(=O)(=O)c2ccccc2)n(Cc2ccc(SC(F)(F)F)cc2)c2ccccc21; 0
Cn1c(=NS(=O)(=O)c2ccccc2)n(Cc2ccc(C(F)(F)F)c(F)c2)c2ccc(C(F)(F)F)cc21; 1
Cc1ccc2c(c1)n(C)c(=NS(=O)(=O)c1ccccc1)n2Cc1ccc(C(F)(F)F)cc1; 0

Quick check: does Cn1c(=NS(=O)(=O)c2ccccc2)n(Cc2cccc(OC(F)(F)F)c2)c2ccccc21 have % Inh @ 0.2 μM greater than or equal to 40%?
1

Could you please find out whether Cn1c(=NS(=O)(=O)c2ccccc2)n(Cc2ccc(C(F)(F)F)cc2)c2cc(F)ccc21 has % Inh @ 0.2 μM that meets 40% or exceeds it?
0

Hi, just wondering whether Cn1c(=NS(=O)(=O)c2ccccc2)n(Cc2ccc(C(F)(F)F)cc2)c2cc(C(F)(F)F)ccc21 shows % Inh @ 0.2 μM of 40% or higher.
0

Decide: % Inh @ 0.2 μM of O=S(=O)(N=c1n2c3c(cccc3n1-c1ccc(OC(F)(F)F)cc1)OCC2)c1ccccc1 >= 40%?
1

Kindly determine if % Inh @ 0.2 μM recorded for CCn1c(=NS(=O)(=O)c2ccccc2)n(Cc2ccc(C(F)(F)F)c(F)c2)c2cc(F)ccc21 is above or exactly 40%.
1

Textbook exercise: given the entry Cn1c(=NS(=O)(=O)c2ccccc2)n(Cc2ccc(C(F)(F)F)c(F)c2)c2ccccc21 , state whether its % Inh @ 0.2 μM is greater than or equal to 40%.
0

====

- target-or-system: canine TRPM8 (Canis lupus familiaris, UniProt Q1A7N1)
- Construct: expressed in transfected cells
- procedure-details: In vitro canine TRPM8 functional assay (icilin-induced intracellular Ca2+ increase, FLIPR/FDSS)
- Format: cell-based
test-readout: pIC50
Please report pIC50 as the negative decimal logarithm of the molar concentration, giving only the number.

Return reported pIC50; argument: CCn1c(=NS(=O)(=O)c2ccccc2)n(Cc2ccc(C(F)(F)F)c(F)c2)c2cc(C(F)(F)F)ccc21
8.30

====

- target-or-system: canine TRPM8 (Canis lupus familiaris, UniProt Q1A7N1)
- Construct: expressed in transfected cells
- procedure-details: In vitro canine TRPM8 functional assay (icilin-induced intracellular Ca2+ increase, FLIPR/FDSS)
- Type: cell-based
- particulars: 0.2 μM compound; HEK293 canine TRPM8; Table 6
- Text: The functional activity of representative compounds of the formula (I) of the present invention was quantified by measuring changes in intracellular calcium concentration using a Ca^2+-sensitive fluorescent dye. The changes in fluorescent signal were monitored by a fluorescence plate reader, either a FLIPR™ (Molecular Devices) or FDSS (Hamamatsu). […]
test-readout: % Inh @ 0.2 μM
Don't forget the unit after the value.

O=S(=O)(N=c1n(Cc2ccc(OC(F)(F)F)cc2)c2cccc3c2n1CCC3)c1ccccc1; 18%
Cn1c(=NS(=O)(=O)c2ccc(F)cc2)n(Cc2ccc(C(F)(F)F)cc2)c2ccccc21; 1%
Cn1c(=NS(=O)(=O)c2ccccc2)n(Cc2ccc(C(F)(F)F)cc2)c2ccccc21; 2%
CCn1c(=NS(=O)(=O)c2ccccc2)n(Cc2ccc(OC(F)(F)F)cc2)c2ccccc21; 75%
Cn1c(=NS(=O)(=O)c2ccccc2)n(Cc2ccc(C(F)(F)F)c(F)c2)c2cc(F)ccc21; 6%

Field request: % Inh @ 0.2 μM | item: Cn1c(=NS(=O)(=O)c2ccccc2)n(Cc2ccc(F)c(Cl)c2)c2ccccc21
38%

Please report the recorded % Inh @ 0.2 μM for Cn1c(=NS(=O)(=O)c2ccccc2)n(Cc2ccc(OC(F)(F)F)cc2)c2cc(F)ccc21 .
1%

Which % Inh @ 0.2 μM is listed for Cn1c(=NS(=O)(=O)c2ccccc2)n(Cc2ccc(OC(F)(F)F)cc2)c2ccccc21 ?
34%

====

- target-or-system: canine TRPM8 (Canis lupus familiaris)
- Construct: expressed in transfected cells
- procedure-details: In vitro canine TRPM8 functional assay (icilin-induced intracellular Ca2+ increase, FLIPR/FDSS)
- Assay type: cell-based
- particulars: 1 μM compound; re-test; samples diluted from 10 mM stock with 100% DMSO; Table 7
test-readout: inhibition at 1 µM (%)
Give just the number in %; leave the unit off.

Study these solved cases before continuing.
O=S(=O)(N=c1n(Cc2ccc(C(F)(F)F)cc2)c2ccccc2n1CC(F)(F)F)c1ccccc1 [Compound 40]; 57
Cn1c(=NS(=O)(=O)c2ccc(F)cc2)n(Cc2ccc(OC(F)(F)F)cc2)c2ccccc21 [Compound 17]; 60

inhibition at 1 µM for Cn1c(=NS(=O)(=O)c2ccc(C(F)(F)F)cc2)n(Cc2ccc(C(F)(F)F)cc2)c2ccccc21 [Compound 21] ?
59

Sample Cn1c(=NS(=O)(=O)c2ccc(C(F)(F)F)cc2)n(Cc2ccc(C(F)(F)F)c(F)c2)c2ccccc21 [Compound 23] — what was its inhibition at 1 µM?
59

I have this molecule here, Cn1c(=NS(=O)(=O)c2ccc(Cl)cc2)n(Cc2ccc(OC(F)(F)F)cc2)c2ccccc21 [Compound 20] , and I need its recorded inhibition at 1 µM.
74

Return reported inhibition at 1 µM; argument: Cn1c(=NS(=O)(=O)c2ccccc2)n(Cc2ccc(OC(F)F)cc2)c2ccccc21 [Compound 13]
55

Endpoint output: inhibition at 1 µM of Cn1c(=NS(=O)(=O)c2ccc(C(F)(F)F)cc2)n(Cc2ccc(OC(F)(F)F)cc2)c2ccccc21 [Compound 18] . Value?
57

Values compiled from patent US9636345B2.
